List of EC50 values.
System: Vaccinia virus
protocol-summary: Antiviral activity against Vaccinia virus Lederle infected in HEL cells assessed as inhibition of viral-induced cytopathogenicity
Assay type: functional, organism-based
assay-setup: Orthopoxvirus vaccinia
Output spec: scalar in µM, unitless text.

Field: example entries. Status: answers known.
chemical_structure=C#C[C@]1(CO)S[C@@H](n2cnc3c(N)ncnc32)C[C@@H]1O endpoint=EC50 measurement_unit=µM quantitative_result=52
chemical_structure=C#C[C@]1(CO)S[C@@H](n2cnc3c(=O)[nH]c(N)nc32)C[C@@H]1O endpoint=EC50 measurement_unit=µM quantitative_result=27
chemical_structure=Nc1nc2c(ncn2COC(CO)CO)c(=O)[nH]1 endpoint=EC50 measurement_unit=µM quantitative_result=100

Q: State the recorded EC50 for this entry: C#C[C@]1(CO)S[C@@H](n2ccc(N)nc2=O)C[C@@H]1O
Ans: 6.5
